Reported solubility values follow for various molecules
test_method_notes: Solubility
measurement_parameters: Solubility, Table 5
Give just the number in mM; leave the unit off.

Measured solubility of O=S(=O)(O)c1cc(O)ccc1O [Hydroquinone sulfonic acid] : 800

Measured solubility of Oc1ccc(O)cc1 [Hydroquinone] : 530

Measured solubility of O=C1C=C(S(=O)(=O)O)C=C(S(=O)(=O)O)C1=O : 1000

Measured solubility of O=C1c2ccc(S(=O)(=O)O)cc2C(=O)c2ccc(S(=O)(=O)O)cc21 : 500

Let us move to another entry and its solubility.
Measured solubility of O=C1c2ccccc2C(=O)c2cc(S(=O)(=O)O)ccc21 : 200
